In this section, each of the compounds is paired with its reported LD10.
- Tested on: Mus musculus
- ASSAY PROCEDURE: Toxicity in ip dosed C3H X DBA2 F1 hybrid mouse […] with mouse L1210 cells on day 0 and dosed once daily on days 1 to 5 measured after 50 days
- Assay type: organism-based
- CONDITION LABEL: in vivo, 1200 h
Write the figure, then the unit, nothing else.

Cc1cc(Nc2ccc(NC(=O)c3ccc(C(=O)Nc4ccc(C(=O)Nc5ccc[n+](C)c5)cc4)cc3)cc2)nc(N)n1.I.[I-]	19 mg/kg
CC[n+]1ccc(Nc2ccc(C(=O)Nc3ccc(Nc4cc[n+](CC)c5ccc(N)cc45)cc3)cc2)cc1.[I-].[I-]	9 mg/kg

Now let's try a different one.
INPUT: Please look up its LD10: C[n+]1cccc(NC(=O)c2ccc(NC(=O)c3ccc(C(=O)Nc4ccc(C(=O)Nc5ccc[n+](C)c5)c(N)c4)cc3N)cc2)c1.Cc1ccc(S(=O)(=O)[O-])cc1.Cc1ccc(S(=O)(=O)[O-])cc1
OUTPUT: 9 mg/kg

----------
- ASSAY PROCEDURE: Lipophilic-hydrophilic balance, Rm of the compound by partition chromatography
- Type: physicochemical
Label rule met when Rm is at or above 0.5; anything below gets rule not met.

CCC[n+]1ccc(Nc2ccc(NC(=O)/C=C/c3ccc(/C=C/C(=O)Nc4ccc(Nc5cc[n+](CCC)cc5)cc4)cc3)cc2)cc1.[Br-].[Br-]	rule not met
CC[n+]1cccc(C(=O)Nc2ccc(NC(=O)c3ccc(C(=O)Nc4ccc5c(ccc[n+]5CC)c4)cc3)cc2)c1.Cc1ccc(S(=O)(=O)[O-])cc1.Cc1ccc(S(=O)(=O)[O-])cc1	rule not met
CCCC[n+]1cccc(C(=O)Nc2ccc(NC(=O)c3ccc(C(=O)Nc4ccc5c(ccc[n+]5CCCC)c4)cc3)cc2)c1.Cc1ccc(S(=O)(=O)[O-])cc1.Cc1ccc(S(=O)(=O)[O-])cc1	rule met
CCCCCC[n+]1cccc2cc(NC(=O)c3ccc(C(=O)Nc4ccc5c(ccc[n+]5CCCCCC)c4)cc3)ccc21.Cc1ccc(S(=O)(=O)[O-])cc1.Cc1ccc(S(=O)(=O)[O-])cc1	rule met

Then this compound:
INPUT: Please check the record CCC[n+]1cccc2cc(NC(=O)c3ccc(C(=O)Nc4ccc(NC(=O)c5ccc6c(ccc[n+]6CCC)c5)cc4)cc3)ccc21.Cc1ccc(S(=O)(=O)[O-])cc1.Cc1ccc(S(=O)(=O)[O-])cc1 and state if its Rm is at or above 0.5.
OUTPUT: rule not met

----------
- System: Mus musculus
- ASSAY PROCEDURE: Toxicity in ip dosed C3H X DBA2 F1 hybrid mouse […] with mouse L1210 cells on day 0 and dosed once daily on days 1 to 5 measured after 50 days
- Type: organism-based
- CONDITION LABEL: in vivo, 1200 h
MEASURE NAME: LD10 (mg/kg)
Output spec: scalar in mg/kg, unitless text.

Worked examples follow.
CCCCC[n+]1cccc(NC(=O)c2ccc(NC(=O)c3ccc(C(=O)Nc4ccc(C(=O)Nc5ccc[n+](CCCCC)c5)cc4)cc3)cc2)c1.Cc1ccc(S(=O)(=O)[O-])cc1.Cc1ccc(S(=O)(=O)[O-])cc1	70
CC[n+]1cccc(NC(=O)c2ccc(NC(=O)c3ccc(C(=O)Nc4ccc(C(=O)Nc5ccc[n+](CC)c5)c(N)c4)cc3)cc2N)c1.Cc1ccc(S(=O)(=O)[O-])cc1.Cc1ccc(S(=O)(=O)[O-])cc1	10

Now let's try a different one.
INPUT: Please look up its LD10: CCCCC[n+]1cccc2cc(NC(=O)c3ccc(C(=O)Nc4ccc5c(ccc[n+]5CCCCC)c4)nc3)ccc21.Cc1ccc(S(=O)(=O)[O-])cc1.Cc1ccc(S(=O)(=O)[O-])cc1
OUTPUT: 250

The values you see were collected from ChEMBL document CHEMBL3228010.
